Where do these numbers come from? They come from ChEMBL document CHEMBL1153719.

System: HeLa
ASSAY_NAME: Cytotoxicity against human HeLa cells after 48 hrs by MTT assay
Type: functional, cell-based
Label rule met when IC50 < 30 µg/mL; otherwise rule not met.

# COMPOUND, QUALITATIVE_LABEL
data = [
    ("CC(C)c1ccc2c(c1)CC[C@H]1[C@](C)(C=O)CCC[C@]21C [DEHYDROABIETINAL]", "rule met"),
    ("CC(C)c1ccc2c(c1)CC[C@H]1[C@](C)(C(=O)O)CCC[C@]21C [DEHYDROABIETIC ACID]", "rule not met"),
    ("CC(=O)OC[C@]1(C)CCC[C@]2(C)c3ccc(C(C)C)cc3CC[C@@H]12 [DEHYDROABIETINOL ACETATE]", "rule met"),
    ("COC(=O)[C@]1(C)CCC[C@]2(C)c3ccc(C(C)C)cc3CC[C@@H]12 [METHYL DEHYDROABIETATE]", "rule met"),
    ("CC(C)c1ccc2c(c1)CC[C@H]1[C@](C)(CO)CCC[C@]21C", "rule met"),
]

Query block: Record CC(C)c1ccc2c(c1)[C@H](O)C[C@H]1[C@](C)(C=O)CCC[C@]21C : is its IC50 strictly below 30 µg/mL?
Result block: rule met

Query block: Record CC(C)c1ccc2c(c1)CC[C@H]1[C@](C)(COC(=O)c3ccccc3)CCC[C@]21C [DEHYDROABIETINOLBENZOATE] : is its IC50 strictly below 30 µg/mL?
Result block: rule not met

Query block: Take the compound CC(C)c1ccc2c(c1)[C@H](O)C[C@H]1[C@](C)(CO)CCC[C@]21C and say whether its IC50 is less than 30 µg/mL.
Result block: rule met
